test system: BT-549 breast; test: NCI tumour cell line growth inhibition, 48 h

{"Molecule": "COc1cc(C(O)c2ccc3c(c2)OCO3)cc(OC)c1OC (centres undefined)", "TGI": "> 100 µM"}
{"Molecule": "C/C(=N\\Nc1nc2ccccc2s1)c1ccc2ccccc2n1", "TGI": "> 100 µM"}
{"Molecule": "Cc1ccc(NC(=O)/C(Cc2nc3ccc([N+](=O)[O-])cc3[nH]c2=O)=N\\NC(=O)C[n+]2ccccc2)c(C)c1", "TGI": "> 100 µM"}
{"Molecule": "c1ccc([P+](CCCCCCCC[P+](c2ccccc2)(c2ccccc2)c2ccccc2)(c2ccccc2)c2ccccc2)cc1", "TGI": "> 100 µM"}
{"Molecule": "OCc1ccc(N2CCOCC2)cc1Cl", "TGI": "> 100 µM"}
{"Molecule": "CSc1ccc(N(C)c2nc(C)nc3c2CCC3)cc1", "TGI": "< 0.01 µM"}
{"Molecule": "Fc1ccc2nc(-c3cc(-c4ccc5c(c4)OCO5)n[nH]3)[nH]c2c1", "TGI": "> 25.9 µM"}
{"Molecule": "Cc1cc(NS(=O)(=O)c2ccc(NC(NC(=O)C(C(F)(F)F)C(F)(F)F)(C(F)(F)F)C(F)(F)F)cc2)no1", "TGI": "> 100 µM"}
{"Molecule": "O=C(CC(=O)Nc1ccccc1)NNC(c1cc(N=Nc2ccc(Br)cc2)ccc1O)P(O)O (centres undefined)", "TGI": "> 10 µM"}

Every entry's value here was drawn from PubChem BioAssay (NCI).
